Molecular target: UniProt Q9GZV3
Sequence (Q9GZV3 whole entry): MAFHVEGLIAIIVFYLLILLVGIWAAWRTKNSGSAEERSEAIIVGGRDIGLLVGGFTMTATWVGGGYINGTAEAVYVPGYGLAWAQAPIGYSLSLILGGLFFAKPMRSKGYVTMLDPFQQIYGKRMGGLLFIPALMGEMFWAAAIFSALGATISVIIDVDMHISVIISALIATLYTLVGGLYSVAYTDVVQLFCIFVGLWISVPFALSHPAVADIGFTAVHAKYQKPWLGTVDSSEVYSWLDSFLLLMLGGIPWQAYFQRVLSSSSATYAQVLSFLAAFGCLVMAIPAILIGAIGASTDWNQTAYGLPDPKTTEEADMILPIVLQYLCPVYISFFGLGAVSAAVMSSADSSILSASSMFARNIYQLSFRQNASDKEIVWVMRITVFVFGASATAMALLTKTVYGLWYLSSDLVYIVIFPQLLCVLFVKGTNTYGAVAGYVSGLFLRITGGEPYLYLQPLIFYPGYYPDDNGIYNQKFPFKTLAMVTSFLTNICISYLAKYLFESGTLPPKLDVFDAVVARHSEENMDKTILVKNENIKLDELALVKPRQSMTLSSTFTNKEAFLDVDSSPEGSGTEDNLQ
Experiment: CHT inhibitors, dose response, cell-based, 5-point CRC, membrane potential dye (AID 504840)
Format: functional
Active and inactive are the calls of the source.
The compounds listed here are annotated with their IC50.

Reference set, count: 3
- structure as smiles: "CCn1cc(CNC(=O)c2cc(COc3ccc(F)cc3F)on2)cn1"
  IC50: "18.2 µM (active)"
- structure as smiles: "Cc1ccc2cc3c(NS(=O)(=O)c4cccc5nonc45)nn(CC(C)C)c3nc2c1"
  IC50: "13.8 µM (active)"
- structure as smiles: "CCOCCCNS(=O)(=O)c1ccc(NC(=O)c2ccc([N+](=O)[O-])cc2Cl)cc1"
  IC50: "1.45 µM (active)"

Could you now look at the following compound, please?
Note IC50 for the compound shown: CCCCNC(=O)c1ccc2c(OCC)n(CCCC)nc2c1 13.1 µM (active)

---

target: Cytochrome P450 2D6 (Homo sapiens);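 note: CYP2D6 member of a cytochrome P450 panel assay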
Sequence (P10635 whole entry): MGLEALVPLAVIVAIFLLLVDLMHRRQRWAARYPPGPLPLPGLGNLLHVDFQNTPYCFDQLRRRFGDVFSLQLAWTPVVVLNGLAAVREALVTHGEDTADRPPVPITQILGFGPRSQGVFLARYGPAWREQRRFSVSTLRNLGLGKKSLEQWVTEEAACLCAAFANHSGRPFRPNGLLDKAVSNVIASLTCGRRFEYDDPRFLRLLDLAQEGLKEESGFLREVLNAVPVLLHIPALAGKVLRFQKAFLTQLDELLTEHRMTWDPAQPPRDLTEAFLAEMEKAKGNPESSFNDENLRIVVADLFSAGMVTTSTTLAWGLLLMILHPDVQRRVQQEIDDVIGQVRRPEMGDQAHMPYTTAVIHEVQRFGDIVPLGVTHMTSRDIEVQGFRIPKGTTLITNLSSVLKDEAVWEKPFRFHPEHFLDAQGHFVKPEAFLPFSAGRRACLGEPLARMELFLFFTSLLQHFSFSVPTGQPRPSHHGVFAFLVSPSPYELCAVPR
Calls of active or inactive are those of the source.
experimental endpoint: AC50

# annotated cases, reported AC50 shown
- molecule: "CN(C)c1ncc2ncc(=O)n(C)c2n1"
  target entity: "Cytochrome P450 2D6 (Homo sapiens)"
  AC50: "20 µM (inconclusive)"
- molecule: "COc1ccccc1N1CCN(C(=O)C(NS(=O)(=O)c2cccs2)c2ccccc2)CC1 (stereo not drawn)"
  target entity: "Cytochrome P450 2D6 (Homo sapiens)"
  AC50: "15.8 µM (inconclusive)"

Please respond with reported AC50 (system Cytochrome P450 2D6 (Homo sapiens)) for O=C(Cc1ccc(Br)cc1)Nc1ccccc1Sc1ccccc1 . 11.2 µM (inconclusive)

Specify AC50 for CC(C)/N=c1\scc(-c2ccco2)n1/N=C/c1ccc(O)c(O)c1 , system Cytochrome P450 2D6 (Homo sapiens). 14.1 µM (inconclusive)

Give AC50 for CCOc1ccc2c(ccc(/C=C/c3cc(C)c4cccnc4c3O)[n+]2C)c1 tested on Cytochrome P450 2D6 (Homo sapiens). 3.16 µM (inconclusive)

Give AC50; test system Cytochrome P450 2D6 (Homo sapiens); molecule COc1ccc(S(=O)(=O)N2CC3C4C=CC(C4)C3C2)cc1 (stereo not drawn) 15.8 µM (inconclusive)

Specify the recorded AC50 for COc1ccccc1CCn1c(=O)c(CCc2ccccc2)nc2cncnc21 , system: Cytochrome P450 2D6 (Homo sapiens). 25.1 µM (inconclusive)

State measured AC50 of the molecule N#Cc1cc(-c2ccccc2)cnc1Sc1ccc(Cl)cc1 with Cytochrome P450 2D6 (Homo sapiens). 10 µM (inconclusive)

Enter recorded AC50 with Cytochrome P450 2D6 (Homo sapiens) for CNC(=O)C(=O)NCCc1ccc(Cl)cc1 here. 28.2 µM (inconclusive)

System Cytochrome P450 2D6 (Homo sapiens). Read-out AC50. Item Cc1c(/C=N/CCOCc2ccccc2)cnn1C . Report value. 25.1 µM (inconclusive)

Return reported AC50 for target or system Cytochrome P450 2D6 (Homo sapiens), item Cc1nc([N+](=O)[O-])c(N2CCN(C)CC2)n1Cc1ccccc1 . 35.5 µM (inconclusive)

Write AC50 of CN(CC(=O)Nc1cccc2c1CCCC2)S(=O)(=O)c1ccc(Br)cc1 ; system used: Cytochrome P450 2D6 (Homo sapiens) 3.16 µM (inconclusive)

System Cytochrome P450 2D6 (Homo sapiens). Read-out AC50. Item COc1cccc(NC(=S)N(CCc2nc3cc(C)c(C)cc3[nH]2)Cc2cccnc2)c1 . Report value. 0.126 µM (inconclusive)

Output reported AC50 of the molecule COc1cc2c(c(OC)c1OC)-c1ccc(OC)c(=O)cc1[C@@H](NC(C)=O)CC2 [COLCHICINE] on Cytochrome P450 2D6 (Homo sapiens). 0.794 µM (active)

Please respond with reported AC50 (system Cytochrome P450 2D6 (Homo sapiens)) for Cc1ccc(N/C([S-])=C(/C(=O)c2ccc(C)c([N+](=O)[O-])c2)[n+]2ccccc2)cc1C . 25.1 µM (inconclusive)

Please indicate recorded AC50 of CN(C)C(=O)c1ccc(-c2nccc(-n3ccnc3)n2)cc1 measured with Cytochrome P450 2D6 (Homo sapiens). 39.8 µM (inconclusive)

Fill in AC50 for Cc1ccccc1-c1nc(NC2CC2)c2ccccc2n1 tested with Cytochrome P450 2D6 (Homo sapiens). 39.8 µM (inconclusive)

Provide AC50, tested on Cytochrome P450 2D6 (Homo sapiens), for COc1ccc(-c2noc(CCCC(=O)NCCc3ccccc3)n2)cc1OC . 22.4 µM (inconclusive)

---

EC50: recorded values
target: Short transient receptor potential channel 4 (Mus musculus, UniProt Q9QUQ5); test: mouse TRPC4 channel activators, dose response, cell-based, HEK293 TRPC4/mu-opioid, Fluo-4 calcium (AID 434937); type: functional
Sequence (Q9QUQ5 whole entry): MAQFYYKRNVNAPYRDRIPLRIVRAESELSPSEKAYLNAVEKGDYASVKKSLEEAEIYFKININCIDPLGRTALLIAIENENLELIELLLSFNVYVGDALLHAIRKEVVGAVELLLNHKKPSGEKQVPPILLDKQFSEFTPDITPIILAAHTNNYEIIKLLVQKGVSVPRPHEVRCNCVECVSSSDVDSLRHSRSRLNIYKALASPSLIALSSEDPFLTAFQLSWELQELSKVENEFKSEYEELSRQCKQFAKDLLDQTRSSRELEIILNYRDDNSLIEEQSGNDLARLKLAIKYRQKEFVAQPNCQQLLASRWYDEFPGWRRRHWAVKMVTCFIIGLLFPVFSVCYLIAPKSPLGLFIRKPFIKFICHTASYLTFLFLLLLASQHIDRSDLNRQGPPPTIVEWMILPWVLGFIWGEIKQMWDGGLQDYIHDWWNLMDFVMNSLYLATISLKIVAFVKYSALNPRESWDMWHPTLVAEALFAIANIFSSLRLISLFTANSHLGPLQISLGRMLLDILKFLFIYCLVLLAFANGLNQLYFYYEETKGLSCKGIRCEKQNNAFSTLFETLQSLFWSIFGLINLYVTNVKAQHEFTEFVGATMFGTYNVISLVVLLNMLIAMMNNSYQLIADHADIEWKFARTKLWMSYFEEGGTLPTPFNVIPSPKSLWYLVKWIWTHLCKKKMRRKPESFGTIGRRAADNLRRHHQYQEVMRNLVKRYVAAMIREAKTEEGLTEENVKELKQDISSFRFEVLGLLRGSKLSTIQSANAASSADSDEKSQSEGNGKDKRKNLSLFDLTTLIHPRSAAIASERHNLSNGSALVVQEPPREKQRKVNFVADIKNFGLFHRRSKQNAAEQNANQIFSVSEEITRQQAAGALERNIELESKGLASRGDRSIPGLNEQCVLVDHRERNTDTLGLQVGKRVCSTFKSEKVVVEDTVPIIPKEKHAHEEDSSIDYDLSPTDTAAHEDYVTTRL
Calls of active or inactive are those of the source.

- molecule: "Fc1ccc(-c2nnc(CN3CCN(c4ncc(C(F)(F)F)cc4Cl)CC3)o2)cc1"
  experimental endpoint: "EC50"
  recorded result: "5.31 µM (active)"
- molecule: "CN1CCN(c2ccc(C(F)(F)F)cc2NC(=O)Nc2ccccc2)CC1"
  experimental endpoint: "EC50"
  recorded result: "4.73 µM (active)"
- molecule: "Fc1ccc(C2CCNCC2COc2ccc3c(c2)OCO3)cc1 (centres undefined)"
  experimental endpoint: "EC50"
  recorded result: "10.6 µM (active)"

Kindly consider the entry below.
Output measured EC50 for this item: COc1ccc(C(CNCC(=O)Nc2ccccc2F)N(C)C)cc1 (centres undefined) 0.133 µM (active)

---

assay: THP-1 cell cytotoxicity, dose response, cytotoxicity control for non-replicating M. tuberculosis project (AID 489025); format: functional
Activity calls are given as the source filed them.
Reported CC50 values for a set of compounds

Example compounds with recorded CC50:
- structure as smiles: "Cc1cc(NCc2ccccn2)n2nc(C)c(-c3ccccc3)c2n1"
  CC50: "6.19 µM (active)"
- structure as smiles: "CCOc1ccc(C(=O)N/N=C/c2cccc3cccnc23)cc1"
  CC50: "11.5 µM (active)"
- structure as smiles: "CC(=O)Oc1c(C)cc(Cl)cc1C(=O)Nc1ccc([N+](=O)[O-])cc1Cl"
  CC50: "5.03 µM (active)"

For the compound O=C(N/N=C/c1cc(Br)ccc1O)c1ccccc1Cl , give its measured CC50 value. 2.16 µM (active)

---

biological target: Cytochrome P450 3A4 (Homo sapiens);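 note: CYP3A4 tested as one member of a cytochrome P450 panel screen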
Sequence (P08684 whole entry): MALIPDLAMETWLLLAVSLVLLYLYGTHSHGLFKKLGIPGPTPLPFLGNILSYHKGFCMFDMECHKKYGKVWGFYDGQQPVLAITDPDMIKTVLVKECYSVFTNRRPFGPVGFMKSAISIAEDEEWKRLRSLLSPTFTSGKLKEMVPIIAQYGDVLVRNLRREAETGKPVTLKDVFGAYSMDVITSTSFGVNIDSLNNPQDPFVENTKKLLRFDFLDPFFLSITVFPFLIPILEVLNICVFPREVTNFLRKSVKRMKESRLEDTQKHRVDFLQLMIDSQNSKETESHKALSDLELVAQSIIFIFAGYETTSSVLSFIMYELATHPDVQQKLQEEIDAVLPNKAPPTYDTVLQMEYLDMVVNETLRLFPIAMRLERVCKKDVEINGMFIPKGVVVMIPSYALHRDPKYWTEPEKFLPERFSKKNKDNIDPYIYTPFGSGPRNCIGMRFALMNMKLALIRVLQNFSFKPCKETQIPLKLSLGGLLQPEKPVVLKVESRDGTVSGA
experimental endpoint: AC50

Provide AC50, recorded with Cytochrome P450 3A4 (Homo sapiens), of COc1cc2c3cc1Oc1c(OC)c(OC)cc4c1[C@@H](Cc1ccc(O)c(c1)Oc1ccc(cc1)C[C@@H]3N(C)CC2)CN(C)C4 2.51 µM (inconclusive)

Specify the recorded AC50 for N#Cc1ccccc1-c1ccc2ncnc(N3CCNCC3)c2c1 , system: Cytochrome P450 3A4 (Homo sapiens). 31.6 µM (inconclusive)

Consider the molecule COc1ccc(/N=C/c2ccc(CNS(=O)(=O)c3ccc(Cl)cc3)o2)cc1 tested on Cytochrome P450 3A4 (Homo sapiens); state its AC50. 31.6 µM (inconclusive)

Consider the molecule CCN1C(=O)[C@H]2[C@H]3[C@H](O)[C@H](O)C/C(=N/OC[C@@H](C)[C@H](OCc4ccccc4)C(C)C)[C@@H]3CC[C@@H]2C1=O tested on Cytochrome P450 3A4 (Homo sapiens); state its AC50. 3.98 µM (inconclusive)

Provide measured AC50 on Cytochrome P450 3A4 (Homo sapiens) for CC[C@H]1C2=C3C(CC[C@H]4C(OCc5ccc(F)cc5C(F)(F)F)OC[C@](C)([C@@H]34)N(C(=O)OC(C)(C)C)C2)C(COC)C1COC (some centres not stated) please. 10 µM (inconclusive)

Using Cytochrome P450 3A4 (Homo sapiens) as the test system, report measured AC50 of N#CCCn1c(=O)c(-c2cc(F)cc(F)c2)nc2cnc(Oc3cccc(Cl)c3)nc21 . 10 µM (inconclusive)
